# Assay Remarks: qHTS assay to identify small molecule antagonists of the sonic hedgehog signaling (Shh) pathway - cell viability counter screen (AID 1259367); further: nearly all actives have a fitted effect of over 55% in size
# Conditions Used: NIH/3T3 Gli1-Luc viability, CellTiter-Fluor, 24 h; series mostly up to 92.4 µM
Results filed as inconclusive are left out. Calls of active or inactive are those of the source. The call rests on the fitted dose curve; in most records, active means well fitted cell-killing curve with a large enough effect in the repeat runs; inconclusive means weak or mixed curves, or effect the other way; inactive means no such curve, though single readings can be large or run the other way.
Select the matching outcome among active, inactive

CCOC(N)=O
inactive
Nc1c(N=Nc2ccc(-c3ccc(N=Nc4cc(S(=O)(=O)O)c5ccccc5c4N)cc3)cc2)cc(S(=O)(=O)O)c2ccccc12
active
NC1CCCCC1
inactive

Query: Just curious, what result did C[C@](N)(Cc1ccc(O)c(O)c1)C(=O)O get here?
Response: inactive

Query: Next entry: NS(=O)(=O)c1cc2c(cc1Cl)NCNS2(=O)=O
Response: inactive
